Molecular target: GIP-receptor (Homo sapiens)
Sequence (P48546 22-466): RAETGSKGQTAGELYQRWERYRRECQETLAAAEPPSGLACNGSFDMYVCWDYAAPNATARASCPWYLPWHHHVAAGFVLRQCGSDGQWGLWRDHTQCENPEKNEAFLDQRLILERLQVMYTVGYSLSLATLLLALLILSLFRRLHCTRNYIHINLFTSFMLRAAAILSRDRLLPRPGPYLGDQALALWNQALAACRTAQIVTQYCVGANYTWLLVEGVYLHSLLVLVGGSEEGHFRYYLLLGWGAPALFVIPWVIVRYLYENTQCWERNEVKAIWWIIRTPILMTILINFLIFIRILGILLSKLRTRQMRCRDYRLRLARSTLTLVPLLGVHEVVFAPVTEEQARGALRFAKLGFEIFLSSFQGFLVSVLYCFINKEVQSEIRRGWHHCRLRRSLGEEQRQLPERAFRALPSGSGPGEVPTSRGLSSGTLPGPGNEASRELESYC
Test: Inhibition of GIP-stimulated cAMP production in GIP-receptor expressing CHO cells
Settings: CHO cells expressing GIP-receptor stimulated by 100 pM GIP; read-out: EC50 of inhibition of the cAMP production inducing effect of GIP
Excerpt: 1. […] Then cAMP is extracted with 30% trichloroacetic acid, and radioimmunoassay is used to quantitate cAMP. Alternatively, Scintillation Proximity Assay (SPA) provided by Amersham Pharmacia Biotech Co., Inc. is used to quantitate cAMP. […]
pEC50: −log10 of the molar value.
MEASURE_NAME: pEC50

pEC50 reported for this compound Cc1cc(O)n2nc(-c3ccccc3)c(Br)c2n1 : ~4.52
